- method: In vitro selectivity index measured for IC50 to that of EC90 was determined in human hepatoblastoma cell line (2.2.15 cells)
- Type: functional
Listing of recorded Ratio by entry.
attribute-measured: Ratio

compound: Nc1ccn([C@@H]2CS[C@H](CO)O2)c(=O)n1 [LAMIVUDINE]
attribute-measured: Ratio
observed-measurement: 11200
--
compound: Nc1ccn([C@H]2CC[C@@H](CO)O2)c(=O)n1 [ZALCITABINE]
attribute-measured: Ratio
observed-measurement: 30
--
compound: Nc1nc(O)c2ncn(CCC(CO)CO)c2n1 [PENCICLOVIR]
attribute-measured: Ratio
observed-measurement: 471
--
compound: O=c1cc(-c2ccc(O)c(-c3c(O)cc4oc(-c5ccc(O)cc5)cc(=O)c4c3O)c2)oc2cc(O)cc(O)c12 [ROBUSTAFLAVONE]
attribute-measured: Ratio
observed-measurement: 153
